Could you please report measured IC50 for the items listed next?
# Test system: MCF-7 breast cancer cell line
# TEST_NAME: MTT antiproliferative assay, MCF-7
# PARTICULARS: Homo sapiens, MCF7, read-out: IC50 against MCF-7
Answers are plain numbers, in µM.

Example entries begin here.
- Cc1ccc(S(=O)(=O)n2nc(C)c3c(-c4ccc(Cl)cc4)c(C#N)c(=S)[nH]c32)cc1: 6.82
- Cc1ccc(S(=O)(=O)n2nc(C)c3c(-c4ccccc4)c(C#N)c(=S)[nH]c32)cc1: 5.25
- CCOC(=O)c1sc2nc3c(c(C)nn3S(=O)(=O)c3ccc(C)cc3)c(-c3ccc(Cl)cc3)c2c1N: 32.1

# next compound below
I have this compound here, "Cc1ccc(S(=O)(=O)n2nc(C)c3c(-c4ccc(Cl)cc4)c4c(N)c(C(=O)O)sc4nc32)cc1" , and I need its recorded IC50.
19.3

* * *

Could you please report measured IC50 for the items listed next?
# Test system: MCF-7 breast cancer cell line
# TEST_NAME: MTT antiproliferative assay, MCF-7
# PARTICULARS: Homo sapiens, MCF7, read-out: IC50 against MCF-7
Answer shape: numeric part, then the unit.

• CC(=O)c1sc2nc3c(c(C)nn3S(=O)(=O)c3ccc(C)cc3)c(-c3ccccc3)c2c1N = 60.2 µM
• Cc1ccc(S(=O)(=O)n2nc(C)c3sc(=S)n(-c4ccccc4)c32)cc1 [Compound 10b] = 8.13 µM

# next molecule below
I have this molecule here, "CC(=O)c1sc2nc3c(c(C)nn3S(=O)(=O)c3ccc(C)cc3)c(-c3ccc(Cl)cc3)c2c1N" , and I need its recorded IC50.
14.2 µM

* * *

# TGT: c-Met kinase (Homo sapiens)
# Sequence (P08581 25-1390): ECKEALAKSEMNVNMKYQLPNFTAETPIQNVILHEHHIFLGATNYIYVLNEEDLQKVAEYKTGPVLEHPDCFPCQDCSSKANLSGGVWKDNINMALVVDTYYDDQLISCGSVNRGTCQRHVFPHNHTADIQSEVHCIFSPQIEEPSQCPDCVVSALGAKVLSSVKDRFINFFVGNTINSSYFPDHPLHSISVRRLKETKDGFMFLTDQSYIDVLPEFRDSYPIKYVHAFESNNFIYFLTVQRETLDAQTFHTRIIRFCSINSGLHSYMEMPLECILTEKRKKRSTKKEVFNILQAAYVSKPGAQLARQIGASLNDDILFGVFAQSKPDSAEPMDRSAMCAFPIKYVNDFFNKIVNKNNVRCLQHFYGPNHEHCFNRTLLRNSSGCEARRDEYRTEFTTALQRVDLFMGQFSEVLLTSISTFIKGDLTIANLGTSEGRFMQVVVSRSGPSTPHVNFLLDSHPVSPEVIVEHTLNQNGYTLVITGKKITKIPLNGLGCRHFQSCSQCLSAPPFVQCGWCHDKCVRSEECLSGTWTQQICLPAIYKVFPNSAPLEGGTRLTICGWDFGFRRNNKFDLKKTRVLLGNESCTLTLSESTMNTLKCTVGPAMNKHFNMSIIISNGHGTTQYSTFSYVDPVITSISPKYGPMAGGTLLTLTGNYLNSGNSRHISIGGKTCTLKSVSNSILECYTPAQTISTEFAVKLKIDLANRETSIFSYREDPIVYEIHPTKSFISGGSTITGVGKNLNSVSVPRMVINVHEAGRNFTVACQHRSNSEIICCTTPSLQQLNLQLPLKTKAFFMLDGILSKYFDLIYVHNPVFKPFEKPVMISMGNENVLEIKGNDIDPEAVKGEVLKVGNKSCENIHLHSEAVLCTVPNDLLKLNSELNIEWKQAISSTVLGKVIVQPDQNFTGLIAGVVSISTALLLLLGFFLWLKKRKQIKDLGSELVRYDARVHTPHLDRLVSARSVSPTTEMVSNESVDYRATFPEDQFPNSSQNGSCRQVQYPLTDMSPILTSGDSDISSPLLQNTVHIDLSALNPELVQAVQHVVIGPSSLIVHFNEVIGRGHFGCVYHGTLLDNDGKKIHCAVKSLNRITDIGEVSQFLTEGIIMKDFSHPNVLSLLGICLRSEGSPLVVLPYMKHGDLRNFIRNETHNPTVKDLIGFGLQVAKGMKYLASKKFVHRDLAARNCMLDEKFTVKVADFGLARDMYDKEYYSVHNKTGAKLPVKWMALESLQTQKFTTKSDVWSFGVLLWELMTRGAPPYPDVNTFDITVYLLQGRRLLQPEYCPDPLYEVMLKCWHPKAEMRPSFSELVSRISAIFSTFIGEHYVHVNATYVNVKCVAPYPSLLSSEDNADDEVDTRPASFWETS
Could you please report measured pIC50 for the items listed next?
Numbers only, as −log10 of the molar value.

- Cc1ccc(S(=O)(=O)n2nc(C)c3c(-c4ccc(Cl)cc4)c(C#N)c(=S)[nH]c32)cc1: 8.10

Any idea what pIC50 came out for "Cc1ccc(S(=O)(=O)n2nc(C)c3c(-c4ccccc4)c(C#N)c(=S)[nH]c32)cc1" on c-Met kinase (Homo sapiens)?
8.37

* * *

# Tested on: human lung fibroblasts (WI-38) normal cells
# TEST_NAME: MTT cytotoxicity assay, normal WI-38 cells
# Assay type: cell-based
# PARTICULARS: WI-38, read-out: IC50 against WI-38
Could you please report measured pIC50 for the items listed next?
Answers are plain numbers, as −log10 of the molar value.

- Cc1ccc(S(=O)(=O)n2nc(C)c3c(-c4ccccc4)c(C#N)c(=S)[nH]c32)cc1: 4.09
- Cc1ccc(S(=O)(=O)n2nc(C)c3c(-c4ccc(Cl)cc4)c(C#N)c(=S)[nH]c32)cc1: 4.07
- O=c1[nH]cc(F)c(=O)[nH]1 [5-Fluorouracil, reference compound]: 4.10
- Cc1ccc(S(=O)(=O)n2nc(C)c3sc(=S)n(-c4ccccc4)c32)cc1 [Compound 10b]: 4.07

I have this compound here, C#Cc1cccc(Nc2ncnc3cc(OCCOC)c(OCCOC)cc23)c1 [Erlotinib, reference compound] , and I need its recorded pIC50.
4.15

* * *

# Tested on: MCF-7 breast cancer cell line
# TEST_NAME: MTT antiproliferative assay, MCF-7
# PARTICULARS: Homo sapiens, MCF7, read-out: IC50 against MCF-7
PROPERTY_MEASURED: IC50 (µM)
Numbers only, in µM.

Example entries begin here.
- Cc1ccc(S(=O)(=O)n2nc(C)c3c(-c4ccccc4)c4c(N)c(C(N)=O)sc4nc32)cc1 [Compound 8a]: 43
- Cc1ccc(S(=O)(=O)n2nc(C)c3sc(=S)n(C)c32)cc1 [Compound 10a]: 13.7
- Cc1ccc(S(=O)(=O)n2nc(C)c3c(-c4ccc(Cl)cc4)c4c(N)c(C#N)sc4nc32)cc1 [Compound 8c]: 36.2

# next molecule below
I have this molecule here, O=c1[nH]cc(F)c(=O)[nH]1 [5-Fluorouracil, reference compound] , and I need its recorded IC50.
3.58
